Biological target: T1, SARS-CoV-2 Spike Glycoprotein S1 (subunit 1) (SARS-CoV-2, UniProt P0DTC2 16-685)
T1 construct: also called S1 Monomer; SARS-CoV-2 S1
Assay: screening phage ELISA, mean
value kind: ELISA (Avg)

1-22 (antibody, V domains shown) VH: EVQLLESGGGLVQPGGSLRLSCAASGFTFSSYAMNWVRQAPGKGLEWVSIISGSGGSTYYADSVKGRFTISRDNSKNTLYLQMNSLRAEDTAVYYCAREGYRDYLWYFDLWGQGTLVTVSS VL: QSALTQPASVSGSPGQSITISCTGTSTDVGSYNLVSWYQQHPGKAPKLMIYEGSQRPSGVSNRFSGSKSGNTASLTISGLQAEDEADYYCCSYAGSSTVFGGGTKLTVL :: 40.6

Now, please, on to the next binder.
Asked: Look up ELISA (Avg): 1-24 (antibody, V domains shown) VH: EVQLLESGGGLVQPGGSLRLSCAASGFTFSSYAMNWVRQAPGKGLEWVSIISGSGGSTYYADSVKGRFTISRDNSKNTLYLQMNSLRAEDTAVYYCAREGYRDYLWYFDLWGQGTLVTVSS VL: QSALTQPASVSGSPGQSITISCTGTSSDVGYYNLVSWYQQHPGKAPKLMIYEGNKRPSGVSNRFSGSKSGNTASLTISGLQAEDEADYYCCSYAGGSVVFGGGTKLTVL
Given back: 32.9

Each recorded value in this set is attributed to patent US20210395344A1.
